assay: Cmax in Wistar rat at 10 mg/kg, iv; type: ADME, organism-based; design: dose 10 mg/kg, route intravenous; details: in vivo
reported_property: Cmax (ng/mL)
Write the answer as a number in ng/mL, unit excluded.

Record summary for `CN1CC(Cl)=C(c2cn(S(=O)(=O)c3ccccc3)c3ccccc23)C1` : reported Cmax = 2690

====

test: Metabolic stability in human liver microsomes assessed as drug metabolized level after 30 mins; assay type: ADME, Microsome; settings: read-out: Activity
Reported metabolised at 0.5 h values for a set of compounds
Field format: number, assumed %, no unit text.

smiles_structure	metabolised at 0.5 h / %
COc1ccc2c(c1)c(C1=C(Cl)CN(C)C1)cn2S(=O)(=O)c1ccccc1	97

Alright, here's another compound for you.
Measured metabolised at 0.5 h of `CN1CC(Cl)=C(c2cn(S(=O)(=O)c3ccccc3)c3ccccc23)C1` : 43

====

test: Clearance in Wistar rat at 10 mg/kg, iv; assay type: ADME, organism-based; design: dose 10 mg/kg, route intravenous; details: in vivo
reported_property: clearance (mL/min/kg)
Field: numeric (mL/min/kg). Do not append units.

Entry `CN1CC(Cl)=C(c2cn(S(=O)(=O)c3ccccc3)c3ccccc23)C1` ; clearance = 72.5

====

test: Cmax in Wistar rat at 10 mg/kg, po; assay type: ADME, organism-based; design: dose 10 mg/kg, route oral; conditions: in vivo
reported_property: Cmax (ng/mL)
Answer with a number only, understood to be in ng/mL.

Form field Cmax, entry `CN1CC(Cl)=C(c2cn(S(=O)(=O)c3ccccc3)c3ccccc23)C1` : 105

====

molecular target: 5-hydroxytryptamine receptor 6 (Homo sapiens); experiment: Binding affinity to human recombinant 5HT6 receptor expressed in CHO cells co-expressing pCRE-Luc gene assessed as modulation of serotonin-induced intracellular cAMP level after 4 hrs by luciferase based luminescence assay; format: cell-based
Checkbox rule: Kb lower than 0.6 nM = met; Kb not lower than 0.6 nM = not met.

Consider the worked cases shown below.
molecule	system_tested	label_value
COc1ccc2c(c1)c(C1=C(Cl)CN(C)C1)cn2S(=O)(=O)c1ccc(Br)cc1	5-hydroxytryptamine receptor 6 (Homo sapiens)	not met
CC(C)Oc1ccc2c(c1)c(C1=C(Cl)CN(C)C1)cn2S(=O)(=O)c1ccc(F)cc1	5-hydroxytryptamine receptor 6 (Homo sapiens)	not met
COc1ccc2c(c1)c(C1=C(Cl)CN(C)C1)cn2S(=O)(=O)c1ccc(C(C)C)cc1	5-hydroxytryptamine receptor 6 (Homo sapiens)	met

Query :: Hello, is Kb of the following molecule strictly smaller than 0.6 nM? CCN1CCC(c2cn(S(=O)(=O)c3ccccc3Br)c3ccccc23)C1 (racemic)
Result :: met

Query :: Just wondering, is Kb of `CCN1CC(Cl)=C(c2cn(S(=O)(=O)c3ccccc3)c3ccc(OC)cc23)C1` below 0.6 nM?
Result :: not met

Query :: # check: Kb < 0.6 nM for CN1CCC(c2cn(S(=O)(=O)c3ccccc3Br)c3ccccc23)C1 (racemic)
Result :: met

Query :: # TODO verify Kb < 0.6 nM strictly for this molecule: CN1CCC(c2cn(S(=O)(=O)c3ccc(F)cc3)c3ccccc23)C1 (racemic)
Result :: not met

Query :: Problem: For the molecule COc1ccc2c(c1)c(C1CCN(C)C1)cn2S(=O)(=O)c1ccccc1Br (racemic) , is Kb under 0.6 nM?
Result :: met

Query :: Please indicate whether the reported Kb of `CCOc1ccc2c(c1)c(C1=C(Cl)CN(C)C1)cn2S(=O)(=O)c1ccc(F)cc1` is strictly below 0.6 nM.
Result :: not met

Query :: In plain terms, does `CN1CC(Cl)=C(c2cn(S(=O)(=O)c3ccccc3)c3ccc(F)cc23)C1` come in under 0.6 nM for Kb?
Result :: met
